# test.summary: Reversed-phase liquid chromatography retention factor (log k) on octyl bonded phase
# Type: physicochemical
# condition: 70% CH3CN; C8 column
readout.type: log k in 70% CH3CN, C8

>>> reading("CCCCCc1ccccc1 [Pentylbenzene]")
0.908
>>> reading("CCCCCCCCc1ccccc1 [Octylbenzene]")
1.318
>>> reading("c1ccc2c(c1)-c1cccc3c1c-2cc1ccccc13 [Benzo(b)fluoranthene]")
0.943
>>> reading("CCCc1ccccc1 [Propylbenzene]")
0.644
>>> reading("CCCCCCCc1ccccc1 [Heptylbenzene]")
1.181
>>> reading("c1ccc2c(c1)cc1ccc3cccc4ccc2c1c34 [Benzo(a)pyrene]")
0.071
